Tested on: wheat germ agglutinin (Triticum aestivum), Alexa647-labelled
procedureText: wheat germ agglutinin binders on compound microarrays, profiling panel, artefact control for SMM control-protein annotation, biochemical, small-molecule microarray, 635/667 nm fluorescence (AID 1140);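 also: score merges 667 nm feature emission with signal to noise over triplicate slides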
experimentalParameters: WGA-A647 binding, 635 nm fluorescence, higher = more signal
Group membership follows composite z-score per the scheme low = under 0.2, middle = from 0.2 up to 0.8, high = 0.8 and over

COCCn1c(C(=O)N2CCCC2)cc2c1C[C@H]1CN(C(=O)c3ccccc3)[C@@](Cc3ccc(F)cc3)(C(=O)OC)[C@@H]21 : high
O=C1c2ccccc2[C@](Cc2ccccc2I)(C(=O)NC2CC2)[C@H](c2ccc(CO)cc2)N1Cc1ccccc1 : middle

### Prompt Class? Entry: `COC(=O)[C@@]1(Cc2ccccc2)[C@H]2c3cc(C(=O)N4CCCC4)n(Cc4cccc5ccccc45)c3C[C@H]2CN1C(=O)c1ccccc1`
### Response high

### Prompt Class? Entry: `COC(=O)[C@@]1(Cc2ccc(OC)cc2)[C@H]2c3cc(C(=O)N4CCCC4)n(Cc4ccsc4Br)c3C[C@H]2CN1C(=O)c1ccccc1`
### Response middle

### Prompt Class? Entry: COc1ccc(C(=O)O[C@H]2CC[C@]3(C)C4=C(CCC3C2(C)C)[C@]2(C)CC[C@H]([C@H](C)CCCC(C)C)[C@@]2(C)CC4)cc1 (some centres not stated)
### Response low

### Prompt Class? Entry: `CC(C)N1C(=O)[C@@]2(Cc3ccccc31)c1ccccc1C(=O)N(C1CCCCC1)[C@H]2c1ccc(CO)cc1`
### Response low

Numbers sourced from PubChem BioAssay.
